experiment: Cytotoxicity against mouse BV-2 cells assessed as cell viability at 10 uM after 24 hrs by MTT assay relative to control; type: cell-based; settings: read-out: Activity
Entries and their viability at 24 h, 10 µM values follow.

{"columns": ["Compound smiles", "viability at 24 h, 10 µM"],
 "data": [
  ["COc1cc([C@@H]2O[C@@H](CC(=O)CCc3ccc(O)cc3)[C@@H]3[C@H]2[C@H](CC(=O)CCc2ccc(O)cc2)O[C@H]3c2ccc(O)c(OC)c2)ccc1O", "< 70%"]
]}

Below: the item to evaluate.
Ask | Return viability at 24 h, 10 µM for the following compound: O=C(CCc1ccc(O)cc1)C[C@@H]1O[C@@H](c2ccc(O)cc2)[C@H]2[C@@H]1[C@H](c1ccc(O)cc1)O[C@H]2CC(=O)CCc1ccc(O)cc1
Reply | < 70%

Origin of the recorded values: ChEMBL document CHEMBL4673332
